Experiment: Blood levels after administration
Assay type: in vivo
Conditions: human, blood, intravenous; 1 h after administration of 75 mg/m2; deduced from the investigator data; read-out: blood levels of DTX
property label: concentration at 1 h (µM)

molecule	property label	quantitative readout
CC(=O)O[C@@]12CO[C@@H]1C[C@H](O)[C@@]1(C)C(=O)[C@H](O)C3=C(C)[C@@H](OC(=O)[C@H](O)[C@@H](NC(=O)OC(C)(C)C)c4ccccc4)C[C@@](O)([C@@H](OC(=O)c4ccccc4)[C@H]21)C3(C)C [Docetaxel, trihydrate]	concentration at 1 h	3.75

====

Experiment: Blood levels after administration
Format: in vivo
Details: human, in vivo
property label: concentration at 1 h

> print(dat)
                                     smiles         result
1  COc1cc(/C=C/C(=O)CC(=O)/C=C/c2ccc(O)c(OC)c2)ccc1O  100 to 450 nM
